protocol_notes: MITF transcriptional activity suppression – cell-based, SK-MEL-5, single point, luciferase, primary screen (AID 488899)
protocol_conditions: SK-MEL-5 TRPM1 promoter luciferase, 24 h; at 12.5 µM; active compounds read high
The whole screen tested about 330,000 compounds, of which about 2,800 (0.85%) were called active. For the sample, actives were picked, then their nearest neighbours and some compounds at random.

# compound, inhibition, %
records = [
    ("CN1CCN(CCCNC(=O)c2ccc(/C=C3\\Oc4ccccc4N(Cc4ccc(Cl)cc4)C3=O)cc2)CC1", 96.1),
    ("Nc1ncnc2c1cnn2C1CC(O)C(CO)O1 (stereo unspecified)", -4.63),
    ("CN(CC(=O)O)C(=O)c1ccccc1", -4.07),
    ("Cc1c(C)n(Cc2ccc(Cl)cc2)c2ccc(C(=O)NCCCN3CCOCC3)cc12", 1.78),
    ("CN(c1ccc2nc3ccccc3c(=O)n2n1)C1CCCCC1", 84.7),
    ("CN(C(=O)c1cc2c(=O)n3ccccc3nc2s1)C1CCCCC1", -36.7),
    ("COc1ccc(C(=O)N[C@H](C(=O)NCc2ccccc2)C(C)C)cc1", 9.58),
    ("COc1cc(OC)cc(C(=O)NNC(=O)CCOc2ccccc2OC)c1", -4.37),
    ("CSCCC(NS(=O)(=O)c1ccc2c(c1)oc(=O)n2C)C(=O)NC1CCCc2ccccc21 (stereo unspecified)", 4.17),
    ("COc1cc(OC)cc(C(=O)N[C@H](C(=O)Nc2nc3ccccc3[nH]2)C(C)C)c1", 71),
    ("CC(=O)NC(CC(=O)Nc1nccs1)c1ccccc1 (stereo unspecified)", -5.93),
]

* * *

protocol_notes: MITF transcriptional activity suppression – cell-based, SK-MEL-5, single point, luciferase, primary screen (AID 488899)
protocol_conditions: SK-MEL-5 TRPM1 promoter luciferase, 24 h; at 12.5 µM; active compounds read high
The campaign covered roughly 330,000 compounds. About 2,800 (0.85%) were called active. What follows is part of a selection rich in actives, with near analogues and random picks from the rest.

# compound, unit_spec, inhibition
data = [
    ("Cc1ccc(S(=O)(=O)N2CCN(C(=O)c3cc(S(=O)(=O)N4CCOCC4)ccc3F)CC2)cc1", "%", 3.63),
    ("Cn1c(=S)sc2ccc3ccccc3c21", "%", 0.517),
    ("CCCCOc1ccc(C(=O)NN2CCN(C)CC2)cc1", "%", -7.2),
    ("O=C(NNC(=O)c1ccc(-n2cncn2)c([N+](=O)[O-])c1)c1ccccc1", "%", -1.1),
    ("COc1ccc(C(=O)/C=C/Nc2ccccn2)cc1", "%", 67.5),
    ("NC(=O)NC(CC(=O)NNC(=O)c1ccccn1)c1ccc(Cl)cc1 (centres undefined)", "%", -12.2),
    ("CC1(C)C2CCC1(C)C(OC(=O)c1ccc(O)cc1)C2 (centres undefined)", "%", -0.433),
    ("CC1(C)N=C(N)NC(Nc2ccc(Cl)cc2)=N1", "%", 4.8),
    ("O=C(/C=C/Sc1ncn[nH]1)c1ccc(Cl)cc1", "%", 90.5),
    ("CCOc1ccc(N/C=C/C(=O)c2ccccc2)cc1", "%", 8.94),
    ("COc1ccc(S(=O)(=O)N2CCOCC2)cc1NC(=O)c1ccc(OCC(C)C)c(OC)c1", "%", -3.59),
    ("C/C(=N\\NC(=O)c1ccoc1C)c1ccccc1O", "%", -21.6),
    ("COc1ccc(C2=Nn3c(nnc3-c3ccccc3OC)SC2)cc1OC1CCCC1", "%", 65.9),
    ("CCOc1nc(NCCN2CCOCC2)nc(Nc2ccc(C)cc2)n1", "%", -2.25),
    ("c1ccc2cc3c(NCCN4CCOCC4)ccnc3cc2c1", "%", 80.4),
    ("c1ccc(-c2ccc(OCCN3CCOCC3)cc2)cc1", "%", -61.1),
    ("COC(=O)Cn1nc(-c2ccccc2)c2cc(Cl)ccc21", "%", -4.99),
    ("CC1=Nn2c(nnc2-c2ccccc2)SC1", "%", -0.377),
    ("O=C(c1cc(COc2ccc(F)cc2F)on1)N1CCOCC1", "%", -44.5),
    ("C/C(=N\\NC(=O)c1ccccc1F)c1ccccn1", "%", 62.2),
    ("COc1cc(C(=O)N2CCN(C3CCC(C)CC3)CC2)cc(OC)c1OC (centres undefined)", "%", -0.962),
    ("CCCOc1ccc(/C=N/NC(=O)C2CC2)c(OCCC)c1", "%", -7.21),
    ("NN=C(NN=Cc1ccccc1)c1ccccc1", "%", -40.6),
    ("COc1ccc(S(=O)(=O)N2CCOCC2)cc1NC(=O)Cc1coc2cc(C)ccc12", "%", 5.65),
]
